What follows is a record of IC50 for Alpha-glucosidase MAL12 (Saccharomyces cerevisiae S288c).
# value in µM; strip the unit string

Would you please look over these solved cases?
Challenge: Entry "COc1cc(O)c2c(-c3ccc(O)c(O)c3)cc(=O)oc2c1" has what IC50?
Response given: 62

Challenge: Same question for CCCC=C1OC(=O)c2ccccc21 [(E)-BUTYLIDENEPHTHALIDE] please.
Response given: 2350

Now turn to the next compound.
Challenge: Query (compound): "COc1cc(-c2oc3cc(O)cc(O)c3c(=O)c2O)ccc1O" ; field requested: IC50
Response given: 160
